Listed here are compounds together with their documented IC50.
# ASSAYED_TARGET: Melanocortin receptor 4 (Homo sapiens, UniProt P32245)
# Sequence (P32245 whole entry): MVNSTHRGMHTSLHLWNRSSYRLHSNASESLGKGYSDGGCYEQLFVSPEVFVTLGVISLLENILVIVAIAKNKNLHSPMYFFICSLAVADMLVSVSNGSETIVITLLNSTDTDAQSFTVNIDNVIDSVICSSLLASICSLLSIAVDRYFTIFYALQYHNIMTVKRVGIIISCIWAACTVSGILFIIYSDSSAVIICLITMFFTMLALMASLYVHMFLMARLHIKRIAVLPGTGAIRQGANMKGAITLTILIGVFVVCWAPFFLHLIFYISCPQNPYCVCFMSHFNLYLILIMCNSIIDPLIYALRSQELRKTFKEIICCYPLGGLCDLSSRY
# TEST_METHOD_NOTES: Displacement of [125I]NDP-alpha-MSH from human MC4 receptor expressed in CHO cells
# Assay type: cell-based
Please state the figure in nM; there is no need to write the unit.

These recorded examples may help you get a feel for the data.
COMPOUND	READOUT_VALUE
CC(=O)N(CC(CC(C)C)N1CCN(C(=O)[C@@H]2CN(C(C)(C)C)C[C@H]2c2ccc(F)cc2F)CC1)C(C)C (single isomer, unassigned; diastereomer 2)	23
CC(C)N(CC(C1CCCCC1)N1CCN(C(=O)[C@@H]2CN(C(C)(C)C)C[C@H]2c2ccc(F)cc2F)CC1)C(=O)c1ncccn1 (stereo in doubt; 22B)	130
CC(=O)N(CC(N1CCN(C(=O)[C@@H]2CN(C(C)(C)C)C[C@H]2c2ccc(F)cc2F)CC1)C(C)(C)C)C(C)C (single isomer, unassigned; diastereomer 2)	150
CC(C)N(CC(C1CCCCC1)N1CCN(C(=O)[C@@H]2CN(C(C)(C)C)C[C@H]2c2ccc(F)cc2F)CC1)C(=O)c1cnn(C(C)C)c1 (single isomer, unassigned; diastereomer 2)	62

Next compound, please.
Enquiry: Value lookup for IC50; key = CC(=O)N(CC(C1CCCCC1)N1CCN(C(=O)[C@@H]2CN(C(C)(C)C)C[C@H]2c2ccc(F)cc2F)CC1)C(C)C (single isomer, unassigned; diastereomer 1)
Return: 29

###

Listed here are compounds together with their documented IC50.
# ASSAYED_TARGET: Melanocortin receptor 4 (Homo sapiens, UniProt P32245)
# TEST_METHOD_NOTES: Displacement of [125I]NDP-alpha-MSH from human MC4 receptor expressed in CHO cells
# Format: cell-based
Please state the figure in nM; there is no need to write the unit.

COMPOUND	RESULT_UNITS	IC50
CC(C)N(CC(N1CCN(C(=O)[C@@H]2CN(C(C)(C)C)C[C@H]2c2ccc(F)cc2F)CC1)C(C)(C)C)S(C)(=O)=O (stereo in doubt; 27A)	nM	53
CC(C)CN(CC(C)C)CC(C1CCCCC1)N1CCN(C(=O)[C@@H]2CN(C(C)(C)C)C[C@H]2c2ccc(F)cc2F)CC1 (stereo partly drawn)	nM	1900

Next compound, please.
Enquiry: Value lookup for IC50; key = CC(C)N(CC(C1CCCCC1)N1CCN(C(=O)[C@@H]2CN(C(C)(C)C)C[C@H]2c2ccc(F)cc2F)CC1)C(=O)c1ncccn1 (single isomer, unassigned; diastereomer 1)
Return: 35

###

Listed here are compounds together with their documented IC50.
# ASSAYED_TARGET: Melanocortin receptor 5 (Homo sapiens, UniProt P33032)
# Sequence (P33032 whole entry): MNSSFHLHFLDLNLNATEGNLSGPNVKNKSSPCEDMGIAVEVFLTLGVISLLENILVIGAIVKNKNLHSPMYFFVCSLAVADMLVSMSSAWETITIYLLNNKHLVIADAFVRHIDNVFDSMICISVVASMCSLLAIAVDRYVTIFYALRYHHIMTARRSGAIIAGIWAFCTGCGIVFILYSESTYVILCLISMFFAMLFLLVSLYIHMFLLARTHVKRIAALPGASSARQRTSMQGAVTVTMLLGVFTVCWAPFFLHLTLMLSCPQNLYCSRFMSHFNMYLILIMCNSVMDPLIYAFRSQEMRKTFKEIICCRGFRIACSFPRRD
# TEST_METHOD_NOTES: Displacement of [125I]NDP-alpha-MSH from human MC5 receptor expressed in CHO cells
Please state the figure in nM; there is no need to write the unit.

These recorded examples may help you get a feel for the data.
COMPOUND	IC50, nM
CC(=O)N(CC(C1CCCCC1)N1CCN(C(=O)[C@@H]2CN(C(C)(C)C)C[C@H]2c2ccc(F)cc2F)CC1)C(C)C (stereo in doubt; 19B)	660
CC(=O)N(CC(CC(C)C)N1CCN(C(=O)[C@@H]2CN(C(C)(C)C)C[C@H]2c2ccc(F)cc2F)CC1)C(C)C (single isomer, unassigned; diastereomer 2)	1100

Enquiry: Value lookup for IC50; key = CC(C)N(CC(C1CCCCC1)N1CCN(C(=O)[C@@H]2CN(C(C)(C)C)C[C@H]2c2ccc(F)cc2F)CC1)S(C)(=O)=O (single isomer, unassigned; diastereomer 2)
Return: 250

Data credit: ChEMBL document CHEMBL1208738
